Reported Trimeric HA Binding RLU by item:
molecular target: recombinant soluble homotrimeric HA of A/Vietnam/1203/04 (H5N1) (Influenza A virus A/Vietnam/1203/2004 (H5N1)); test: HA microarray, BCC supernatant; settings: remark: other sources report otherwise
property: Trimeric HA Binding RLU (RLU)

1. TCN-534 (5249_B02) (antibody, V domains shown) VH: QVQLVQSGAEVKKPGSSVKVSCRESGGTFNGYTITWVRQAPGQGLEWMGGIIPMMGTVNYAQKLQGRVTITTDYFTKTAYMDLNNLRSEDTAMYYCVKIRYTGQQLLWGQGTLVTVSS VL: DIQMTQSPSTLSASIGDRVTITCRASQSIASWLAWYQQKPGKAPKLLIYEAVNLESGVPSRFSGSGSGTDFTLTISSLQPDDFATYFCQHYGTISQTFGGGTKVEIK; 3440
2. TCN-530 (5248_H10a) (antibody, V domains shown) VH: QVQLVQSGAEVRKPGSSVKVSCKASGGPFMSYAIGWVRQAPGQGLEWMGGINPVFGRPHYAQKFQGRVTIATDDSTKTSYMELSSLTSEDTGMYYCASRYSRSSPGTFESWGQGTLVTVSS VL: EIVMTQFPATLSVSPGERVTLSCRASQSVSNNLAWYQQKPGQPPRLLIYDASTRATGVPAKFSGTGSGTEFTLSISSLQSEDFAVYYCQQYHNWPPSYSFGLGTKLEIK; 7150
3. TCN-546 (5089_L08) (antibody, V domains shown) VH: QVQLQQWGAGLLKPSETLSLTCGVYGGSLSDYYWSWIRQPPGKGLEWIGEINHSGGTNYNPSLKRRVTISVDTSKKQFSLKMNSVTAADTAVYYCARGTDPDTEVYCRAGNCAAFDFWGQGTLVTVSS VL: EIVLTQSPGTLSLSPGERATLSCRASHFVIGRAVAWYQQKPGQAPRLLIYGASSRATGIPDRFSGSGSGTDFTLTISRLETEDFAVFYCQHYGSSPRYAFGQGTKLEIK; 349
